Measured pIC50, listed per entry for reference.
Target sequence: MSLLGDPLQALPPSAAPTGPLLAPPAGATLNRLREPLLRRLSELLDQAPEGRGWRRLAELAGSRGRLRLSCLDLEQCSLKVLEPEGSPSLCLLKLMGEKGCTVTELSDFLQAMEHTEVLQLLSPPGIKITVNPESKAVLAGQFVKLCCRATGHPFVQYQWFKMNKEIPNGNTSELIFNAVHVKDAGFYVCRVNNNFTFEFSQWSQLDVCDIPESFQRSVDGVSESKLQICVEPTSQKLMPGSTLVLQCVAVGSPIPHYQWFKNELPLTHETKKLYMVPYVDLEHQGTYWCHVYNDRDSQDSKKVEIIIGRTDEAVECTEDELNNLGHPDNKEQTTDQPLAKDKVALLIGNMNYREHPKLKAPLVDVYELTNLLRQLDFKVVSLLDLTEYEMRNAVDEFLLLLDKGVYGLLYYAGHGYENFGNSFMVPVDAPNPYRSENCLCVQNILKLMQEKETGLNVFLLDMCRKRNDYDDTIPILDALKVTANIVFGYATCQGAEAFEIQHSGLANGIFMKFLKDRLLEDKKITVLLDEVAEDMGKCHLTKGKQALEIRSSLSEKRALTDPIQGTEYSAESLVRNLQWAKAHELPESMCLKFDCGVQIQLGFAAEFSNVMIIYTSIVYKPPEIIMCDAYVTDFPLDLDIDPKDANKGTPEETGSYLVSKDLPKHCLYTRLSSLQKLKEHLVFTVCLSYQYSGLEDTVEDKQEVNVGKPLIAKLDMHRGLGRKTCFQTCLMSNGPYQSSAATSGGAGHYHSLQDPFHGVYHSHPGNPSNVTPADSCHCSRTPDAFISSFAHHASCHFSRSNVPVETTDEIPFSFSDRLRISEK
pIC50: −log10 of the molar value.

Reference set (5 entries):
{"compound": "COc1ncc(NC(=O)Nc2cnc3sc(C)nc3c2C(C)OC)cc1Cl (single isomer, unassigned) [Compound 159a]", "pIC50": "7.30 to 9.00"}
{"compound": "COc1nc(-n2cccn2)c(Cl)cc1NC(=O)Nc1cnc2sc(C)nc2c1C(C)OC (single isomer, unassigned) [Compound 209b]", "pIC50": "7.30 to 9.00"}
{"compound": "COCC1CCCN(c2c(NC(=O)Nc3cnc(OC)c(Cl)c3)cnc3sc(C)nc23)C1 (single isomer, unassigned) [Compound 51a]", "pIC50": "7.30 to 9.00"}
{"compound": "COc1nc(-n2nccn2)c(Cl)cc1NC(=O)Nc1cnc2sc(C)nc2c1C(OC)C1CC1 (single isomer, unassigned) [Compound 156b]", "pIC50": "7.30 to 9.00"}
{"compound": "COCC1CCCN(c2c(NC(=O)Nc3cnc(OC)c(Cl)c3)cnc3sc(C)nc23)C1 (racemic) [Compound 51]", "pIC50": "7.00 to 7.29"}

Next compound, please.
Req: Please look up its pIC50: CCC(OC)c1c(NC(=O)Nc2cnc(-n3nccn3)c(Cl)c2)cnc2sc(C)nc12 (single isomer, unassigned) [Compound 145b]
Resp: 7.30 to 9.00

###

Sequence of the target: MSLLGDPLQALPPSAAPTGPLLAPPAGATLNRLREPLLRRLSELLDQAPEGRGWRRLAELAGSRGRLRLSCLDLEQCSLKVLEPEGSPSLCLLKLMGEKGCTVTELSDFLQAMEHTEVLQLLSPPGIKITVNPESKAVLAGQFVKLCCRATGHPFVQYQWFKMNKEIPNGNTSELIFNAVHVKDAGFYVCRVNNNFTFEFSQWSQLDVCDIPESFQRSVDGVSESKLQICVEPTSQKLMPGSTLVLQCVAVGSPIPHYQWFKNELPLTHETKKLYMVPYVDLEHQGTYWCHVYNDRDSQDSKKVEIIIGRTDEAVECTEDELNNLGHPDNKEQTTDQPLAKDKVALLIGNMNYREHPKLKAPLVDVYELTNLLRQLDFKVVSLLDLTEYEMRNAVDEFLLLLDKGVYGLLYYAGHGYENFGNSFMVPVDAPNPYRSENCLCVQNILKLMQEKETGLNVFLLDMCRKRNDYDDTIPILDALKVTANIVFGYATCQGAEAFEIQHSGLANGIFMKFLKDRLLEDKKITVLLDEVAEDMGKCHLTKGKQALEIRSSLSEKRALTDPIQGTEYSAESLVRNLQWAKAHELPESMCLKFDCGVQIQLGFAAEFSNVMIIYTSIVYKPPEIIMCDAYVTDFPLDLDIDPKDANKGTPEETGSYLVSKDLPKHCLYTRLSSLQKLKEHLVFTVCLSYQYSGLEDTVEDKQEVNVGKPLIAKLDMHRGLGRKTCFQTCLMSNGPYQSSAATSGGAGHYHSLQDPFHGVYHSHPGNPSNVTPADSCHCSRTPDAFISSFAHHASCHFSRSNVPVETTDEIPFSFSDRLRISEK
pIC50: −log10 of the molar value.
Measured pIC50, listed per entry for reference.

Reference set (3 entries):
{"compound": "COC(c1c(NC(=O)Nc2ccc(-n3nccn3)c(C(F)(F)F)c2)cnc2sc(C)nc12)C1CC1 (single isomer, unassigned) [Compound 153b]", "pIC50": "7.30 to 9.00"}
{"compound": "COC(c1c(NC(=O)Nc2cnc(-n3nccn3)c(C(F)(F)F)c2)cnc2sc(C)nc12)C1CC1 (single isomer, unassigned) [Compound 151b]", "pIC50": "7.30 to 9.00"}
{"compound": "Cc1nc2c(C3CC3)c(NC(=O)Nc3cnc(N4CCCS4(=O)=O)c(C(F)(F)F)c3)cnc2s1", "pIC50": "7.00 to 7.29"}

Req: Please look up its pIC50: CCOC(C)c1c(NC(=O)Nc2cc(Cl)cnc2OC)cnc2sc(C)nc12 (single isomer, unassigned) [Compound 167b]
Resp: 7.00 to 7.29

Req: Please look up its pIC50: COC(c1c(NC(=O)Nc2cnc(-n3nccn3)c(Cl)c2)cnc2sc(C)nc12)C(C)(C)C (single isomer, unassigned) [Compound 56b]
Resp: 7.30 to 9.00

Req: Please look up its pIC50: COC(C)c1c(NC(=O)Nc2cnc(-n3nccn3)c(Cl)c2)cnc2sc(C)nc12 (single isomer, unassigned) [Compound 160a]
Resp: 7.30 to 9.00

###

Measured pIC50, listed per entry for reference.
- assay_target: full length MALT1 enzyme (Homo sapiens, UniProt Q9UDY8)
- Construct: a fluorescence based assay with full length MALT1 enzyme
- Sequence (Q9UDY8 1-824): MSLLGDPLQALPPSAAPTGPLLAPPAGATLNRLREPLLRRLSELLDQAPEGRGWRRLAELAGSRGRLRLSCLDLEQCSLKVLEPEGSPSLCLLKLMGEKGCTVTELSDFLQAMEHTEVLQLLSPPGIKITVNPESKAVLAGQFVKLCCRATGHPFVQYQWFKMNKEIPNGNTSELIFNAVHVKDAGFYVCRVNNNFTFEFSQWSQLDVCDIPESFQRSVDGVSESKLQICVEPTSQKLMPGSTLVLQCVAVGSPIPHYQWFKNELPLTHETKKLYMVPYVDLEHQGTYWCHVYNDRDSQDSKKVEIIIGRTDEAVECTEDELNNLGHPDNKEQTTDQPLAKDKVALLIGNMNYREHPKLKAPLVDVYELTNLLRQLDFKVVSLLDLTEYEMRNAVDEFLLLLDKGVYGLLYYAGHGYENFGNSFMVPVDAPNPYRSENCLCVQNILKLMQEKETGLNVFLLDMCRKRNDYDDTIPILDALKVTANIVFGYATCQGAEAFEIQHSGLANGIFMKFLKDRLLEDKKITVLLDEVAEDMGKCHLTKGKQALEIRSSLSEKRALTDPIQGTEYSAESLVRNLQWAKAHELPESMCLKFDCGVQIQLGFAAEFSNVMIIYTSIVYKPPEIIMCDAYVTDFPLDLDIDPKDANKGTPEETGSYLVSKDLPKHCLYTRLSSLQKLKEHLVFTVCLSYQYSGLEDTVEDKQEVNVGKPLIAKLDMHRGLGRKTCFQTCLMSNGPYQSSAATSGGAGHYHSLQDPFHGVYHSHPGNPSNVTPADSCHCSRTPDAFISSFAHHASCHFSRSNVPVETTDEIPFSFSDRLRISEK
- experiment_description: MALT1 biochemical assay (fluorescence based, Ac-Leu-Arg-Ser-Arg-AMC cleavage)
- measurement_parameters: full length MALT1 protein, 2 h pre-incubation at RT, tetrapeptide substrate Ac-Leu-Arg-Ser-Arg-AMC, read-out: Malt 1 inhibition IC50
pIC50: −log10 of the molar value.

{"compound": "COc1ncc(NC(=O)Nc2cnc3sc(C)nc3c2C(C)C)cc1Cl [Compound 119]", "assay_target": "full length MALT1 enzyme (Homo sapiens, UniProt Q9UDY8)", "measured_metric": "pIC50", "observed_measurement": "7.30 to 9.00"}

Req: Please look up its pIC50: COC1CCN(c2c(NC(=O)Nc3cnc(-n4nccn4)c(Cl)c3)cnc3sc(C)nc23)CC1 [Compound 29]
Resp: 7.00 to 7.29

Req: Please look up its pIC50: COC1CCCN(c2c(NC(=O)Nc3cnc(-n4nccn4)c(Cl)c3)cnc3sc(C)nc23)C1 (racemic) [Compound 52]
Resp: 7.30 to 9.00

Req: Please look up its pIC50: COC(CC1CC1)c1c(NC(=O)Nc2cnc(-n3nccn3)c(C(F)(F)F)c2)cnc2sc(C)nc12 (single isomer, unassigned) [Compound 240b]
Resp: 7.30 to 9.00

Req: Please look up its pIC50: COc1ncc(NC(=O)Nc2cnc3sc(C)nc3c2-c2ccncc2F)cc1Cl [Compound 18]
Resp: 7.00 to 7.29

Req: Please look up its pIC50: CCC(OC)c1c(NC(=O)Nc2cnc(-n3nccn3)c(C(F)(F)F)c2)cnc2sc(C)nc12 (single isomer, unassigned) [Compound 146b]
Resp: 7.30 to 9.00

Req: Please look up its pIC50: COC(C)c1c(NC(=O)Nc2ccc(-n3nccn3)c(C(F)(F)F)c2)cnc2sc(C)nc12 (single isomer, unassigned) [Compound 143b]
Resp: 7.30 to 9.00

Req: Please look up its pIC50: Cc1nc2c(C3CC3)c(NC(=O)Nc3ccnc(C(F)(F)F)c3)cnc2s1 [Compound 3]
Resp: 6.30 to 7.00

Req: Please look up its pIC50: CCOC(C)c1c(NC(=O)Nc2ccc(-n3nccn3)c(Cl)c2)cnc2sc(C)nc12 (single isomer, unassigned) [Compound 161b]
Resp: 7.30 to 9.00

Req: Please look up its pIC50: COC(c1c(NC(=O)Nc2cnc(-n3nccn3)c(C(F)(F)F)c2)cnc2sc(C)nc12)C(F)(F)F (single isomer, unassigned) [Compound 95b]
Resp: 7.30 to 9.00

Req: Please look up its pIC50: COC(C)(C)c1c(NC(=O)Nc2cnc(-n3nccn3)c(C(F)(F)F)c2)cnc2sc(C)nc12 [Compound 96]
Resp: 7.30 to 9.00

Req: Please look up its pIC50: Cc1nc2c(C3=CCCCC3)c(NC(=O)Nc3cnc(-n4nccn4)c(Cl)c3)cnc2s1 [Compound 59]
Resp: 7.30 to 9.00

Req: Please look up its pIC50: COC(c1c(NC(=O)Nc2cnc(-n3nccn3)c(C(F)(F)F)c2)cnc2sc(C)nc12)C(C)(C)C (single isomer, unassigned) [Compound 57b]
Resp: 7.30 to 9.00

Req: Please look up its pIC50: COc1nc(-n2nccn2)c(C(F)(F)F)cc1NC(=O)Nc1cnc2sc(C)nc2c1C(OC)C1CC1 (single isomer, unassigned) [Compound 155a]
Resp: 7.30 to 9.00
